- measured_on: Gal4 DNA binding domain fused to the LBD of LXRα in HEK293 cells (Homo sapiens (Human), UniProt Q13133)
- Sequence (Q13133 209-447): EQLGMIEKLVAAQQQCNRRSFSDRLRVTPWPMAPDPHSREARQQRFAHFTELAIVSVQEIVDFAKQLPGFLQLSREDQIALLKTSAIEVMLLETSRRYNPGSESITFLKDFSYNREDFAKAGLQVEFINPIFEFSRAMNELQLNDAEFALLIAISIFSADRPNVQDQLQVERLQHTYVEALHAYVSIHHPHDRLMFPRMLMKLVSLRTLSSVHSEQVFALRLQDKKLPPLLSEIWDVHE
- assay_method_text: LXR luciferase transcriptional reporter gene assay, agonist mode, LXRα
- Type: cell-based
- test_context: Biological Test Example 2, agonist mode; read-out: Cell LXRα EC50
test_readout: pEC50
Scale explanation: pEC50 corresponds to minus log10 of a concentration expressed in moles per litre.

Some solved cases for reference:
## Task Quick one: pEC50 of CS(=O)(=O)c1cccc(N2CCN(CC3CCN(CC(F)(F)F)CC3)[C@@H](c3ccccc3)C2)c1 (single isomer, unassigned) [48-52] ?
## Result 6.13

## Task Quick one: pEC50 of CS(=O)(=O)c1cccc(N2CCN(CC3(F)CCN(CC(F)(F)F)CC3)[C@@H](c3ccc(F)cc3)C2)c1 [48-57] ?
## Result 5.35

## Task Quick one: pEC50 of CO[C@]1(C(F)(F)F)CC[C@H](CN2CCN(c3ccc(CO)c(S(C)(=O)=O)c3)C[C@@H]2C(C)C)CC1 (single isomer, unassigned) [Cpd No 48-80] ?
## Result 7.57

## Task Quick one: pEC50 of CS(=O)(=O)c1cccc(N2CCN(C[C@H]3CCN(CC(F)(F)F)C3)[C@H](c3ccccc3)C2)c1 (single isomer, unassigned) [48-60] ?
## Result 4.73

## Task Quick one: pEC50 of CS(=O)(=O)c1cccc(N2CCN(C[C@@H]3CCN(CC(F)(F)F)C3)[C@@H](c3ccccc3)C2)c1 (single isomer, unassigned) [48-61] ?
## Result 5.64

## Task Quick one: pEC50 of CC(C)[C@H]1CN(c2cccc(S(C)(=O)=O)c2)CCN1CC1CCC(C)(C)OC1 (some centres unmarked) [51-3] ?
## Result 5.46

## Task Quick one: pEC50 of CS(=O)(=O)c1cccc(N2CCN(CC3(F)CCN(CC(F)(F)F)CC3)[C@@H](c3ccccc3)C2)c1 (single isomer, unassigned) [48-53] ?
## Result 5.66

## Task Quick one: pEC50 of CC(C)[C@H]1CN(c2ccc(CO)c(S(C)(=O)=O)c2)CCN1C[C@H]1CCN(CC(F)(F)F)C1 (single isomer, unassigned) [48-58] ?
## Result 5.49

Turning to the following molecule.
## Task Quick one: pEC50 of CC(C)[C@H]1CN(c2cccc(S(C)(=O)=O)c2)CCN1CC1CCC(C(F)(F)F)NC1 (some centres unmarked) [48-68] ?
## Result 5.91
